Test system: Escherichia coli
Experiment: Binding affinity to Escherichia coli DXR at 20 uM by STD-NMR analysis
Active and inactive are the calls of the source. The rule behind the calls is not given here.
Labels: true (active), false (inactive)

> print(dat)
                                test.smiles  answer.label
 1         CC(=O)c1sc(NC(=O)CP(=O)(O)O)nc1C          true
 2          O=C(CCCCP(=O)(O)O)Nc1cccc(Br)c1         false
 3                  O=C(CP(=O)(O)O)Nc1nccs1          true
 4  CCOP(=O)(CCC(=O)Nc1nc(C)c(C(C)=O)s1)OCC          true
 5                 O=C(CP(=O)(O)O)Nc1ccccn1          true
 6                 O=C(CCP(=O)(O)O)Nc1ccon1          true
 7             CCOP(=O)(CC(=O)Nc1ccccn1)OCC          true
 8        CC(=O)c1sc(NC(=O)CCP(=O)(O)O)nc1C          true
 9                O=C(CCP(=O)(O)O)NCc1ccco1          true
10             CCOP(=O)(CCC(=O)Nc1ccon1)OCC          true
11   CCOP(=O)(CC(=O)Nc1nc(C)c(C(C)=O)s1)OCC          true
12             CCOP(=O)(CCC(=O)Nc1nccs1)OCC          true
13            CCOP(=O)(CCC(=O)Nc1ccccn1)OCC          true
14          N#Cc1cccc(NC(=O)CCCP(=O)(O)O)c1         false
15                 O=C(CP(=O)(O)O)NCc1ccco1          true
16            CCOP(=O)(CCC(=O)NCc1ccco1)OCC          true
17             CCOP(=O)(CC(=O)NCc1ccco1)OCC          true
18              CCOP(=O)(CC(=O)Nc1nccs1)OCC          true
19                  O=C(CP(=O)(O)O)Nc1ccon1          true
20              CCOP(=O)(CC(=O)Nc1ccon1)OCC          true
21           O=C(CCCCP(=O)(O)O)Nc1cccc(O)c1         false
22                 O=C(CCP(=O)(O)O)Nc1nccs1          true
23                O=C(CCP(=O)(O)O)Nc1ccccn1          true
